- measurement target: BoNT A (Clostridium botulinum)
experimental endpoint: IC50

Value lookup for IC50; key = O=C(O)CN1C(=O)/C(=C/c2c[nH]c3ccccc23)SC1=S
> 200 µM

====

- measurement target: lethal factor (LF) (Bacillus anthracis, UniProt P15917)
- Sequence (P15917 34-809 limits assumed): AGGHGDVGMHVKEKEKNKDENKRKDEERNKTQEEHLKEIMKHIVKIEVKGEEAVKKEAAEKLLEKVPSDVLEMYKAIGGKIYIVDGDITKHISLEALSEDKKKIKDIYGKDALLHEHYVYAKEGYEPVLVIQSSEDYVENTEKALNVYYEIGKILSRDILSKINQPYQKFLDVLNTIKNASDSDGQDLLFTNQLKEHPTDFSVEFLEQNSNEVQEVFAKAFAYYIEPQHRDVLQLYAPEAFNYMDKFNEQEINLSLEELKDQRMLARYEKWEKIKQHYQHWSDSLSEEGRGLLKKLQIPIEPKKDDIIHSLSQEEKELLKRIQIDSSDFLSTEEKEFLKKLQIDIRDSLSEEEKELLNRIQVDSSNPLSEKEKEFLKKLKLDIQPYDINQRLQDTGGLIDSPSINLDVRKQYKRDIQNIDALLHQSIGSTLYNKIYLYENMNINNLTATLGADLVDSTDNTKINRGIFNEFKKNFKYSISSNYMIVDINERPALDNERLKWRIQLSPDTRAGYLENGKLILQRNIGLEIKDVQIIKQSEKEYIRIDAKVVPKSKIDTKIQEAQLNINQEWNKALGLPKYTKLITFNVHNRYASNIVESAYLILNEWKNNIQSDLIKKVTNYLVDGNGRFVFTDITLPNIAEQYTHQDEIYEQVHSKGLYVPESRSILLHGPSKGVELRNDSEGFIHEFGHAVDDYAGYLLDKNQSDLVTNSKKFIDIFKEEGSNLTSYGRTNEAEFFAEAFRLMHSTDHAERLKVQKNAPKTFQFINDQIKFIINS
- test summary: biochemical
- Type: biochemical
- test settings: pH 7.4; read-out: LF IC50
Please use the following IC50 ranges when assigning a class: low: < 3 µM; moderate: ≥ 3 µM and < 7 µM; high: ≥ 7 µM

Solved cases below.
> print(dat)
                                   compound       cat
1  Cc1nc(/C=C2\SC(=S)N(CC(=O)O)C2=O)c(C)o1 [Compound 17]      high
2  O=C(O)CN1C(=O)/C(=C/c2csc3ccccc23)SC1=S [Compound 57]      high
3  O=C(O)CN1C(=O)/C(=C/c2ccc(-c3ccccc3)cc2)SC1=S [Compound 49]  moderate

Continue with the compound presented below.
Assign a category based on measured IC50 for O=C(O)CN1C(=O)/C(=C/c2ccc(N3CCOCC3)s2)SC1=S [Compound 48] and give only the class name.
high

====

List of IC50 values.
- measurement target: BoNT A (Clostridium botulinum)
- test summary: biochemical

> print(dat)
                                   molecule              measurement.target  experimental.endpoint  test.value
1  CCOc1ccc(-c2nn(-c3ccccc3)cc2/C=C2\SC(=S)N(CC(=O)O)C2=O)cc1F  BoNT A (Clostridium botulinum)                   IC50    > 200 µM
2  CC1Cc2cc(-c3nn(-c4ccccc4)cc3/C=C3\SC(=S)N(CCS(=O)(=O)O)C3=O)ccc2O1 (stereo not shown)  BoNT A (Clostridium botulinum)                   IC50    > 200 µM

Value lookup for IC50; key = O=C(O)C(c1ccccc1)N1C(=O)/C(=C/c2ccc(-c3ccc(Cl)cc3Cl)o2)SC1=S (stereo not shown)
> 200 µM

O=C(O)CN1C(=O)/C(=C/c2cc(-c3ccco3)on2)SC1=S , same question.
> 200 µM

====

- measurement target: BoNT A (Clostridium botulinum, UniProt P0DPI0)
- Sequence (P0DPI0 whole entry, looked up): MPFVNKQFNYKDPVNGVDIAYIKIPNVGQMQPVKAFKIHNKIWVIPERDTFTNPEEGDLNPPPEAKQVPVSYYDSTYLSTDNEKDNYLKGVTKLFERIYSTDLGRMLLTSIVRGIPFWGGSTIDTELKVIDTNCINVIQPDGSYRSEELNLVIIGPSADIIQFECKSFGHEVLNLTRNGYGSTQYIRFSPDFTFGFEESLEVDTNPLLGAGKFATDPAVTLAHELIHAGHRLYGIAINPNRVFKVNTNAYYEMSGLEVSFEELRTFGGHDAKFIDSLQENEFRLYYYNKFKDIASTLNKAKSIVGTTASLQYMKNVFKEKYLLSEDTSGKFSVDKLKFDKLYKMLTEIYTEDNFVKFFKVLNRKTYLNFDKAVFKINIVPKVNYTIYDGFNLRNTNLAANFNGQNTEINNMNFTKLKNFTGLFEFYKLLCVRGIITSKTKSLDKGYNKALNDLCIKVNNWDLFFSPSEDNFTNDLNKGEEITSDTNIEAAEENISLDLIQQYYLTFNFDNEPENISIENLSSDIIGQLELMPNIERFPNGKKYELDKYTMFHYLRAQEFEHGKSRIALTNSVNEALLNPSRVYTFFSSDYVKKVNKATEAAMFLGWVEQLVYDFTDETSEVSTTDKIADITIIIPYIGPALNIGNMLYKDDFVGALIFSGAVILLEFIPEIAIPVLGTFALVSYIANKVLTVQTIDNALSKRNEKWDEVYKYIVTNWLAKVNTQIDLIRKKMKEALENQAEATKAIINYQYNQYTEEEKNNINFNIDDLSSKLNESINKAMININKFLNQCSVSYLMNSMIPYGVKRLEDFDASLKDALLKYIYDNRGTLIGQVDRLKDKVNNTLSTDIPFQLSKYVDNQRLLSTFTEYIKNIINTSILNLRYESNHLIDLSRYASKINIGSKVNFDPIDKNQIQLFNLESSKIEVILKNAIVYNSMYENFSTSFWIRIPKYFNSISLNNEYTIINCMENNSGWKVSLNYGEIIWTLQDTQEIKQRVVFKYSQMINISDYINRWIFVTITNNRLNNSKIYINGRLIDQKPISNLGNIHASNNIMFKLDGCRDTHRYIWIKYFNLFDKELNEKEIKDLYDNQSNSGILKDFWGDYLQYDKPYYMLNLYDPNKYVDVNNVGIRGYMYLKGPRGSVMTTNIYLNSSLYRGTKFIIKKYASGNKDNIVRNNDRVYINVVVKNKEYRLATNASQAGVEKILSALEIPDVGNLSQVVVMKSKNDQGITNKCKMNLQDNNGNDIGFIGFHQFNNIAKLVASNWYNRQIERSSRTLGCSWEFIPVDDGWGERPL
List of IC50 values.

> print(dat)
                            smiles.notation  test.value
1  O=C1/C(=C/c2cn(-c3ccccc3)nc2-c2ccc(OCc3ccc(Cl)cc3)cc2)SC(=S)N1CCS(=O)(=O)O    > 200 µM

Value lookup for IC50; key = O=C(O)CN1C(=O)/C(=C/c2c[nH]c3ccc(Br)cc23)SC1=S
> 200 µM

O=C(O)CN1C(=O)/C(=C/c2cccc(Br)n2)SC1=S , same question.
> 200 µM

====

- measurement target: BoNT A (Clostridium botulinum, UniProt P0DPI0)
List of IC50 values.
Supply the numeric figure in µM, leaving out any unit text.

Below are worked cases with known answers.
> print(dat)
                            smiles.notation                        measurement.target  test.value
1  O=C(O)CN1C(=O)/C(=C/c2cn(-c3ccc(F)cc3F)nc2-c2cccnc2)SC1=S  BoNT A (Clostridium botulinum, UniProt P0DPI0)        71.5
2  O=C(O)CN1C(=O)/C(=C/c2ccc(N3CCOCC3)s2)SC1=S  BoNT A (Clostridium botulinum, UniProt P0DPI0)         112
3  O=C(O)CN1C(=O)/C(=C/c2cn(-c3ccccc3)nc2-c2ccccc2)SC1=S  BoNT A (Clostridium botulinum, UniProt P0DPI0)         111

Value lookup for IC50; key = O=C(O)CN1C(=O)/C(=C/c2ccc(-c3ccccc3)cc2)SC1=S
54.6
